Experiment: a
Positions of bridges follow the written chain, without caps; N, C: chain ends. Non-standard residues stand in square brackets, D forms with d. Lys(N3) = [N-]=[N+]=NCCCC[C@H](N)C(=O)O; Pra = C#CC[C@H](N)C(=O)O
Known Pe of a selection of substances
The figure you give is taken to be in nm/s; do not add the unit.

Here are 3 substances together with their reported answers.
# get_value(readout='Pe', item= c[Pra-Tyr-Ser-Tyr-Tyr-Ser-Az4] ([Pra]YSYYS[Lys(N3)]; triazole N-C) [EPP6] )
2.34

Query c[Pra-Thr-Tyr-Tyr-Thr-Tyr-Az4] ([Pra]TYYTY[Lys(N3)]; triazole N-C) [EPP2] next
4.6872

Query c[Pra-Tyr-Thr-Tyr-Tyr-Thr-Az4] ([Pra]YTYYT[Lys(N3)]; triazole N-C) [EPP3] next
1.1206

# ---- query substance ----
# get_value(readout='Pe', item= c[Pra-Ser-Tyr-Tyr-Ser-Tyr-Az4] ([Pra]SYYSY[Lys(N3)]; triazole N-C) [EPP7] )
6.3243
